# Test system: Plasmodium falciparum
# ASSAY: Primary screen in NF54 nanoGlo assay, in single point, at 2uM, 72h; a lower Z score goes with more inhibition
# Format: functional, Erythrocyte
# CONDITION_DETAILS: timepoint 72 hour
The campaign covered roughly 150,000 compounds. About 540 (0.36%) showed an effect of 50% or more. The sample as a whole holds a higher share of strong results than the screen did.
OBSERVATION_TYPE: Z score

>>> reported("Nc1ccnc2ccc(-c3ccc(C(=O)NCC4CCOCC4)cc3)cc12")
-16.44
>>> reported("COc1ccc(C(O)CNC2CCc3ccc(F)cc32)cc1 (configuration not stated)")
0.04
>>> reported("CN1CCCN(Cc2ccc(CNCc3cccc(O)c3)cc2)CC1")
-3.36
>>> reported("Cn1cncc1[C@@H]1CNC[C@H]1CNC(=O)c1ccccc1NC1CCCCC1")
-14.83
>>> reported("NCCc1cccc(CN2CCC[C@H](CN3CCCCC3)C2)c1")
-0.52
>>> reported("COc1cc2nc(-c3cc(Cl)c(O)cc3C)nc(N)c2cc1OC")
-0.41
>>> reported("CCN1CCN(c2ccc(CNCc3cccc(O)c3)cc2F)CC1")
-19.29
